Test system: L1210 leukemia ip in BDF1 mice, survival T/C
assay info: NCI In Vivo Anticancer Drug Screen. Data for tumor model L1210 Leukemia (intraperitoneal) in B6D2F1 (BDF1) mice
conditions: endpoint: mean survival time; dose: 400.0 mg/kg/injection; schedule: Q01DX001 (ip); vehicle: carboxymethylcellulose (CMC)
Inconclusive results and toxic doses are left out. No stated cut-off is given here; in the data, active means T/C of 150% or more; inactive means T/C below 125%.
Hi! Could you answer with just one of these? active, inactive

Q) How did this test come out for CCCCC(C)(O)CCC (stereo unspecified) ?
A) inactive

Q) Would you mind telling me which call this test gave COc1ccc(NC(=O)Oc2ccccn2)cc1 ?
A) inactive

Q) Returns: the outcome recorded for NC(=S)N/N=C\c1csc2ccccc12 in this assay.
A) inactive

Q) What is the recorded call for this compound in the test? N#CCCNC(=O)Nc1cccc2ccccc12
A) inactive

Q) Any idea what this test logged for Cc1ccc(S(=O)(=O)Nc2cc(C)cc(CCNC=O)c2C)cc1 ?
A) inactive

Q) Per the records of this test, what outcome belongs to O=C1C=CC(=O)N1C(=O)NC(I)NC(=O)N1C(=O)C=CC1=O ?
A) inactive

Q) For Nc1nc2c(ncn2C2OC(COC(=O)c3ccc(Cl)cc3)C(OC(=O)c3ccc(Cl)cc3)C2OC(=O)c2ccc(Cl)cc2)c(=O)[nH]1 (stereo unspecified) , which call appears in the assay record?
A) inactive

Q) # lookup: test call for CN(c1ccccc1)c1ccc([N+](=O)[O-])cc1[N+](=O)[O-]
A) inactive

Q) What did this assay record as the result for Cc1ccc(NC(=O)NCCBr)cc1 ?
A) inactive

Q) I'd appreciate the recorded outcome for CC(C)CC(NC(=O)OC(C)(C)C)C(=O)NC(Cc1c[nH]c2ccccc12)C(=O)NN (stereo unspecified) from this test.
A) inactive

Q) Short answer needed: outcome of this test for CCN(CC)c1nc2ccccc2o1 ?
A) inactive

Q) Given CCCCN1C(=O)NC(=O)C1c1ccsc1 (stereo unspecified) , state the outcome it received in this test.
A) inactive

Q) Answer briefly: the call reported for O=NN(CCCl)C(=O)Nc1ccc(CCO)cc1 in this assay.
A) active

Q) For this compound, state the assay outcome: O=C1c2ccccc2C(=O)N1CCS(=O)(=O)Cl
A) inactive

Q) Kindly provide the recorded test outcome for the following compound: O=CC(OC(=O)c1ccccc1)C(OC(=O)c1ccccc1)C(COC(c1ccccc1)(c1ccccc1)c1ccccc1)OC(=O)c1ccccc1 (stereo unspecified)
A) inactive

Q) Recorded call for CC1c2ccccc2OC(=O)C1C(=O)O (stereo unspecified) ?
A) inactive

Q) Status in this test for O=C(c1cccs1)c1c(C(F)(F)F)oc2c(c1=O)C=CC2 ?
A) inactive

Q) Returns: the outcome recorded for O=C(/C(=C/c1ccc2c(c1)OCO2)c1ccccc1)c1ccc(OCCN2CCCC2)cc1 in this assay.
A) inactive

Q) Outcome? COc1ccccc1/C=N/Nc1nnc(N/N=C/c2ccccc2OC)c2ccccc12
A) inactive

Q) Could you check what this test reported for CC(C)(CCC(=O)O)CCC(=O)O ?
A) inactive

Q) For this compound, state the assay outcome: CCOP(=S)(N/N=C\C(C)(C)C1CCCCC1)OCC
A) inactive

Q) // param item: COC(=O)C1(O)c2ccccc2-c2ccccc21 ; yields the recorded call
A) inactive

Q) Please let me know the test result on file for COc1ccc(CN2CCCN(Cc3ccc(OC)cc3OC)C2c2cc([N+](=O)[O-])ccc2O)c(OC)c1 .
A) inactive

Q) Which result was noted for this compound in the test: CCCCCOB(OCCCCC)OCCCCC
A) inactive

Q) Lab log entry: O=C(O)c1ccc(Cl)nc1 — outcome as called in the assay?
A) inactive

Q) I'd appreciate the recorded outcome for Cc1cc([N+](=O)[O-])c(Cl)c([N+](=O)[O-])c1 from this test.
A) inactive
